# targetDesc: furin, P09958;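 further: purified furin at 1:10 enzyme:substrate in 50 mM HEPES pH 7.5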
# Sequence (P09958 whole entry): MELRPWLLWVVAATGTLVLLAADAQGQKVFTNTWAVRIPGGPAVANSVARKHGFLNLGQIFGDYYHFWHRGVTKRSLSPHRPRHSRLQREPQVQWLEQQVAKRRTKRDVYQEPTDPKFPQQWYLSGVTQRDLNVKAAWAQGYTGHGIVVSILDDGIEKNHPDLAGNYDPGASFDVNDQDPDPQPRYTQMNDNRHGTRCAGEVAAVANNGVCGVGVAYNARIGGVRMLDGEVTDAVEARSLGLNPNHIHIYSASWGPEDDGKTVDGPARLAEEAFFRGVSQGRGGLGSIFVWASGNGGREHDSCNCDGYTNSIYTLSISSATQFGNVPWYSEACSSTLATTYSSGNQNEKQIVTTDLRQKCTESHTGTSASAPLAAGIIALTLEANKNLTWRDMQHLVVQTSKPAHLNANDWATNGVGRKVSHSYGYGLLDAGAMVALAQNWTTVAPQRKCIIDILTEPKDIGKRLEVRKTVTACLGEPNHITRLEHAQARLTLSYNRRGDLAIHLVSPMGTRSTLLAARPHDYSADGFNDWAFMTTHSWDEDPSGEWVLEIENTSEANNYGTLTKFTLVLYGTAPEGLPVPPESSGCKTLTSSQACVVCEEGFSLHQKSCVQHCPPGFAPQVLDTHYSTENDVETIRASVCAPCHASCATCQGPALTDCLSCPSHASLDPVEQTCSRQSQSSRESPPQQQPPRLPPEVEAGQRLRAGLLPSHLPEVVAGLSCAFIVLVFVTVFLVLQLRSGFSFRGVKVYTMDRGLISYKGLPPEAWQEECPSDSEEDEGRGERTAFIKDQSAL
# methodNotes: furin cleavage Z-score vs untreated control; higher = more cleavage, active = 3.5 or more, inactive = 1 or less, 8 variable residues between constant flanks
# measurementSetup: 15 min
Some of the results follow. No count for the full screen is at hand.

residueSequence: CAEVVQSTWVAGNASASA [HC139]
furin cleavage Z-score: -0.568
--
residueSequence: CAPVPPPRKKAGNASASA [HC1322]
furin cleavage Z-score: 1.55
--
residueSequence: CAVLSDFKTWAGNASASA [HC1154]
furin cleavage Z-score: -0.333
--
residueSequence: CARQRRPWEPAGNASASA [FS-2366]
furin cleavage Z-score: -0.595
--
residueSequence: CAPKPQKKNKAGNASASA [HC163]
furin cleavage Z-score: -0.337
--
residueSequence: CARQRRHPELAGNASASA [FS-2763]
furin cleavage Z-score: 1.42
--
residueSequence: CAVLSRQKREAGNASASA [FS-206]
furin cleavage Z-score: 9.59
--
residueSequence: CALLLAVFGPAGNASASA [HC606]
furin cleavage Z-score: -0.292
--
residueSequence: CAPVYCFTPSAGNASASA [HC413]
furin cleavage Z-score: 1.3
--
residueSequence: CAKKKRMAMAAGNASASA [FS-2867]
furin cleavage Z-score: 0.494
--
residueSequence: CAPRRRQQREAGNASASA [FS-1551]
furin cleavage Z-score: 4.83
--
residueSequence: CANKRNTNRRAGNASASA [HC166]
furin cleavage Z-score: 1.53
--
residueSequence: CADPMEECSQAGNASASA [HC1819]
furin cleavage Z-score: -1.88
--
residueSequence: CARQRRSSGHAGNASASA [FS-3164]
furin cleavage Z-score: 6.83
--
residueSequence: CARQRRSHVLAGNASASA [FS-2766]
furin cleavage Z-score: 4.17
